Tested on: soil urease
Assay: Urea hydrolysis in bands of urea plus inhibitor in Hastings silt loam soil (banded system)
Assay type: biochemical
Conditions: Table II; equimolar basis, 0.25 millimoles inhibitor/band, 410 mg urea/band; three replications; Hastings silt loam, 25° C.; 3 days
Catalogue of Unhydrolyzed Urea, % 3 Days readings, one per entry.
Expressed in %, but write only the number.

[[record]]
compound = "NC(=O)NO [CO(NH2)(NHOH), Hydroxyurea, reference compound]"
testedtarget = "soil urease"
quantitativeresult = 20.3

[[record]]
compound = "NP1(N)=NP(N)(N)=NP(N)(N)=N1 [P3 N3 (NH2)6]"
testedtarget = "soil urease"
quantitativeresult = 48.1

[[record]]
compound = "NP(N)(N)=O [PO(NH2)3, Phosphoryltriamide, reference compound]"
testedtarget = "soil urease"
quantitativeresult = 43.4


Given item CC(=O)NO [CH3 C(NOH)(OH), Acetohydroxamic acid, reference compound] , the value recorded as its Unhydrolyzed Urea, % 3 Days is 26.2

###

Catalogue of Soil Urease Inhibition, 14 Days readings, one per entry.
Tested on: soil urease
Assay: Soil urease inhibition in Crowley silt loam soil, extended time evaluation system (urea added at selected intervals)
Format: biochemical
Details: 7 micromoles compound per 120 g Crowley silt loam, 30° C.; urea added after 14 days, reincubated 16 hours
Expressed in %, but write only the number.

The following compounds have reported results that may help.
[[record]]
compound = "NP(N)(N)=O [PO(NH2)3, Phosphoryltriamide, reference compound]"
parametermeasured = "Soil Urease Inhibition, 14 Days"
unitssymbol = "%"
quantitativeresult = 0

[[record]]
compound = "NP1(N)=NP(N)(Oc2ccccc2)=NP(N)(Oc2ccccc2)=N1 (centres unmarked)"
parametermeasured = "Soil Urease Inhibition, 14 Days"
unitssymbol = "%"
quantitativeresult = 69

[[record]]
compound = "NP1(N)=NP(N)(N)=NP(N)(Oc2ccccc2)=N1 (centres unmarked)"
parametermeasured = "Soil Urease Inhibition, 14 Days"
unitssymbol = "%"
quantitativeresult = 42

[[record]]
compound = "NP1(N)=NP(N)(N)=NP(N)(N)=N1"
parametermeasured = "Soil Urease Inhibition, 14 Days"
unitssymbol = "%"
quantitativeresult = 4


Given item NP1(Oc2ccccc2)=NP(N)(Oc2ccccc2)=NP(N)(Oc2ccccc2)=N1 (centres unmarked) , the value recorded as its Soil Urease Inhibition, 14 Days is 84

###

Test system: soil urease
Assay: Soil urease inhibition in Crowley silt loam soil, extended time evaluation system (urea added at selected intervals)
Format: biochemical
Conditions: 7 micromoles compound per 120 g Crowley silt loam, 30° C.; urea added after 0 days, reincubated 16 hours
Classification field: YES = Soil Urease Inhibition, 0 Days at or over 30%; NO = Soil Urease Inhibition, 0 Days under 30%.

Check out these entries, answers already filled in.
[[record]]
molecule = "NP1(N)=NP(N)(N)=NP(N)(N)=N1"
testedtarget = "soil urease"
classassignment = "YES"

[[record]]
molecule = "NP1(Oc2ccccc2)=NP(N)(Oc2ccccc2)=NP(N)(Oc2ccccc2)=N1 (centres unmarked)"
testedtarget = "soil urease"
classassignment = "NO"

[[record]]
molecule = "NP1(N)=NP(N)(Oc2ccccc2)=NP(N)(Oc2ccccc2)=N1 (centres unmarked)"
testedtarget = "soil urease"
classassignment = "YES"


I'd appreciate it if you could say whether NP1(N)=NP(N)(N)=NP(N)(Oc2ccccc2)=N1 (centres unmarked) has Soil Urease Inhibition, 0 Days at least equal to 30%. YES

I'd appreciate it if you could say whether NP(N)(N)=O [PO(NH2)3, Phosphoryltriamide, reference compound] has Soil Urease Inhibition, 0 Days at least equal to 30%. NO

###

Tested on: soil urease
Assay: Urea hydrolysis in bands of urea plus inhibitor in Hastings silt loam soil (banded system)
Type: biochemical
Details: Table IV; inhibitor 10 percent of urea (wt/wt), 41 mg/band; two replications; Hastings silt loam; 3 days
Catalogue of Unhydrolyzed Urea, % 3 Days readings, one per entry.
Expressed in %, but write only the number.

[[record]]
molecule = "NP1(N)=NP(N)(N)=NP(N)(N)=N1"
testedtarget = "soil urease"
parametermeasured = "Unhydrolyzed Urea, % 3 Days"
quantitativeresult = 53.8


Given item NP(N)(N)=O [PO(NH2)3, Phosphoryltriamide, reference compound] , the value recorded as its Unhydrolyzed Urea, % 3 Days is 54.2

Given item CN(C)P1(N(C)C)=NP(N(C)C)(N(C)C)=NP(N(C)C)(N(C)C)=N1 [P3 N3 [N(CH3)2]6] , the value recorded as its Unhydrolyzed Urea, % 3 Days is 0.0

Given item `CNP1(NC)=NP(N)(N)=NP(NC)(NC)=N1` , the value recorded as its Unhydrolyzed Urea, % 3 Days is 0.5

Given item `CNP1(NC)=NP(NC)(NC)=NP(NC)(NC)=N1` , the value recorded as its Unhydrolyzed Urea, % 3 Days is 0.0
